The following compounds are shown together with reported EC50 values.
- System: TLR2 induced IL-6 in peripheral blood mononuclear cells (PBMCs)
- Method Notes: PBMC TLR2 Induced IL-6 Assay
- Type: cell-based
- Condition Info: Homo sapiens, PBMC, 5 h, 10 μg/ml lipoteichoic acid for 5 hours, IL-6 by ELISA, values marked * are EC50, read-out: Cell EC50 (values marked *)
I only need the number, in nM, no unit after it.

Compound: CC(C)(O)[C@H](F)CNC(=O)c1cnc(Nc2ncc(C#N)cc2F)cc1Nc1ccc(C(N)=O)cc1 [Example 142]
Endpoint Name: EC50
Recorded Result: 93
--
Compound: CC(C)(O)[C@H](F)CNC(=O)c1cnc(Nc2ncncc2Cl)cc1NC1CC1 [Example 105]
Endpoint Name: EC50
Recorded Result: 336
--
Compound: CC(C)(O)[C@H](F)CNC(=O)c1cnc(Nc2ncc(C#N)cc2Cl)cc1Nc1cccc(C#N)c1 [Example 162]
Endpoint Name: EC50
Recorded Result: 330
--
Compound: CC(=O)N[C@H]1CC[C@H](NC(=O)c2cnc(Nc3ncc(C#N)cc3Cl)cc2NC2CCOCC2)CC1 [Example 77]
Endpoint Name: EC50
Recorded Result: 216
--
Compound: CC(C)(O)[C@H](F)CNC(=O)c1cnc(Nc2ncc(C#N)cc2Cl)cc1NC1CCCC1O (stereo partly shown) [Example 76]
Endpoint Name: EC50
Recorded Result: 107
--
Compound: CC(C)(O)[C@H](F)CNC(=O)c1cnc(Nc2ncc(C#N)cn2)cc1N[C@H]1CCC[C@H]1F [Example 107]
Endpoint Name: EC50
Recorded Result: 757
--
Compound: COC(=O)Cn1cc(Cl)c(Nc2cc(NC(C)C)c(C(=O)NC[C@@H](F)C(C)(C)O)cn2)n1 [Example 93]
Endpoint Name: EC50
Recorded Result: 394
--
Compound: CC(C)(O)[C@H](F)CNC(=O)c1cnc(Nc2ncc(C#N)cc2Cl)cc1Nc1ccc(-n2cccn2)cc1 [Example 168]
Endpoint Name: EC50
Recorded Result: 122
--
Compound: CC(C)(O)[C@H](F)CNC(=O)c1cnc(Nc2ncc(C#N)cc2F)cc1Nc1cccc(CO)c1 [Example 122]
Endpoint Name: EC50
Recorded Result: 56
--
Compound: CC(C)Nc1cc(Nc2ncc(C#N)cc2F)ncc1C(=O)NCCc1ccc(S(N)(=O)=O)cc1 [Example 121]
Endpoint Name: EC50
Recorded Result: 49

Observed EC50 on TLR2 induced IL-6 in peripheral blood mononuclear cells (PBMCs), entry Cn1nnnc1-c1cccc(Nc2cc(Nc3ncc(C#N)cc3Cl)ncc2C(=O)NC[C@@H](F)C(C)(C)O)c1 [Example 146] , equals 509

Observed EC50 on TLR2 induced IL-6 in peripheral blood mononuclear cells (PBMCs), entry COC(=O)N[C@H]1CC[C@H](NC(=O)c2cnc(Nc3ncc(C#N)cc3F)cc2NC(C)C)CC1 [Example 165] , equals 279

Observed EC50 on TLR2 induced IL-6 in peripheral blood mononuclear cells (PBMCs), entry CC(C)(O)[C@H](F)CNC(=O)c1cnc(Nc2ncc(C#N)cc2F)cc1NC12CC3CC(CC(C3)C1)C2 [Example 119] , equals 736

Observed EC50 on TLR2 induced IL-6 in peripheral blood mononuclear cells (PBMCs), entry CC(C)(O)[C@H](F)CNC(=O)c1cnc(Nc2ncncc2Cl)cc1NC1CCOCC1 [Example 95] , equals 501

Observed EC50 on TLR2 induced IL-6 in peripheral blood mononuclear cells (PBMCs), entry CC(C)Nc1cc(Nc2ncncc2F)ncc1C(=O)NC[C@@H](F)C(C)(C)O [Example 53] , equals 517

Observed EC50 on TLR2 induced IL-6 in peripheral blood mononuclear cells (PBMCs), entry CC(=O)N[C@H]1CC[C@H](NC(=O)c2cnc(Nc3ncc(C#N)cc3Cl)cc2NC2CC2)CC1 [Example 67] , equals 457

Observed EC50 on TLR2 induced IL-6 in peripheral blood mononuclear cells (PBMCs), entry CC(C)Nc1cc(Nc2ncc(C#N)cc2F)ncc1C(=O)N[C@H]1CC[C@H](S(C)(=O)=O)CC1 [Example 33] , equals 149

Observed EC50 on TLR2 induced IL-6 in peripheral blood mononuclear cells (PBMCs), entry CC(C)(O)[C@H](F)CNC(=O)c1cnc(Nc2ncc(C#N)cn2)cc1NC1CCC(F)C1 (stereo partly shown) [Example 86] , equals 349

Observed EC50 on TLR2 induced IL-6 in peripheral blood mononuclear cells (PBMCs), entry C[C@H](CO)Nc1cc(Nc2ncc(F)cc2F)ncc1C(=O)NC[C@@H](F)C(C)(C)O [Example 100] , equals 308

Observed EC50 on TLR2 induced IL-6 in peripheral blood mononuclear cells (PBMCs), entry CS(=O)(=O)[C@H]1CC[C@H](NC(=O)c2cnc(Nc3ncc(C#N)cc3Cl)cc2NC2CCOCC2)CC1 [Example 149] , equals 193

Observed EC50 on TLR2 induced IL-6 in peripheral blood mononuclear cells (PBMCs), entry CC(C)(O)[C@H](F)CNC(=O)c1cnc(Nc2ncc(C#N)cc2F)cc1NCC(F)(F)C(C)(C)O [Example 126] , equals 83

Observed EC50 on TLR2 induced IL-6 in peripheral blood mononuclear cells (PBMCs), entry CC(C)(O)[C@H](F)CNC(=O)c1cnc(Nc2nc(OC3CCNCC3)ncc2Cl)cc1NC1CC1 [Example 42] , equals 329

Observed EC50 on TLR2 induced IL-6 in peripheral blood mononuclear cells (PBMCs), entry CC(C)(O)[C@H](F)CNC(=O)c1cnc(Nc2ncc(C#N)cc2Cl)cc1NC1CCOCC1F (stereo partly shown) [Example 79] , equals 494

Observed EC50 on TLR2 induced IL-6 in peripheral blood mononuclear cells (PBMCs), entry CC(C)Nc1cc(Nc2ncc(C#N)cc2Cl)ncc1C(=O)N[C@H]1CC[C@H](O)CC1 [Example 92] , equals 269

Observed EC50 on TLR2 induced IL-6 in peripheral blood mononuclear cells (PBMCs), entry CC(C)CCNc1cc(Nc2ncc(C#N)cc2Cl)ncc1C(=O)NC[C@@H](F)C(C)(C)O [Example 140] , equals 241

Observed EC50 on TLR2 induced IL-6 in peripheral blood mononuclear cells (PBMCs), entry CC(C)(O)[C@H](F)CNC(=O)c1cnc(Nc2ncc(Cl)cc2F)cc1NC1CC1 [Example 124] , equals 98

Observed EC50 on TLR2 induced IL-6 in peripheral blood mononuclear cells (PBMCs), entry CCCNc1cc(Nc2ncc(C#N)cc2Cl)ncc1C(=O)NC[C@@H](F)C(C)(C)O [Example 138] , equals 108

Observed EC50 on TLR2 induced IL-6 in peripheral blood mononuclear cells (PBMCs), entry CC(C)CNc1cc(Nc2ncc(C#N)cc2Cl)ncc1C(=O)NC[C@@H](F)C(C)(C)O [Example 155] , equals 309

Observed EC50 on TLR2 induced IL-6 in peripheral blood mononuclear cells (PBMCs), entry Cc1nc(Nc2cc(NC(C)C)c(C(=O)NC[C@@H](F)C(C)(C)O)cn2)ccc1C#N [Example 63] , equals 92

Observed EC50 on TLR2 induced IL-6 in peripheral blood mononuclear cells (PBMCs), entry CC(C)Nc1cc(Nc2ncc(C#N)cc2F)ncc1C(=O)N[C@H]1CC[C@H](C(C)(C)O)CC1 [Example 137] , equals 72

Observed EC50 on TLR2 induced IL-6 in peripheral blood mononuclear cells (PBMCs), entry CC(C)(O)[C@H](F)CNC(=O)c1cnc(Nc2ncc(C#N)cc2Cl)cc1NC1CCCCC1O (stereo partly shown) [Example 104] , equals 199

* * *

- Tested on: TLR2 induced IL-6 in peripheral blood mononuclear cells (PBMCs)
- Method Notes: PBMC TLR2 Induced IL-6 Assay
- Type: cell-based
- Condition Info: Homo sapiens, PBMC, 5 h, 10 μg/ml lipoteichoic acid for 5 hours, IL-6 by ELISA, values marked * are EC50, read-out: Cell EC50 (values marked *)
API: label(entry) gives rule met if the entry's EC50 is strictly smaller than 0.2 µM; on equality or larger values it gives rule not met.

Reference set, count: 2
Compound: CC(C)(O)[C@H](F)CNC(=O)c1cnc(Nc2ncc(C#N)cc2F)cc1Nc1cccc(C(N)=O)c1
Assigned Label: rule met

Compound: CC(C)(O)[C@H](F)CNC(=O)c1cnc(Nc2ncc(C#N)cc2Cl)cc1N[C@H]1CC[C@@](C)(O)CC1
Assigned Label: rule not met

Req: Identify whether the compound `CC(C)Nc1cc(Nc2ncc(C#N)c(N)n2)ncc1C(=O)NC[C@@H](F)C(C)(C)O` records EC50 below 0.2 µM.
Resp: rule met

Req: Identify whether the compound `CCNC(=O)[C@H]1CC[C@H](NC(=O)c2cnc(Nc3ncc(C#N)cc3F)cc2NC(C)C)CC1` records EC50 below 0.2 µM.
Resp: rule met

Req: Identify whether the compound `CC(C)(O)[C@H](F)CNC(=O)c1cnc(Nc2ccc(Cl)cn2)cc1NC1CC1` records EC50 below 0.2 µM.
Resp: rule met
